Provide the reported Maximum HMOX1 upregulation of each item.
Test system: HMOX1 mRNA
Assay: HMOX1 (HO-1) mRNA upregulation in human bronchial epithelial cells (NHBE)
Format: cell-based
Conditions: 48 hours post transfection, mean of 3 donors
Give bare numbers, in %.

Below, each entry is followed by its recorded Maximum HMOX1 upregulation result.
29956-DC (sense GUCUGAGUGUCCGUGGUUATT; antisense UAACCACGGACACUCAGACUU; inverted abasic caps (B), 2'-modified nucleotides, further chemistry not given here)	2416
29961-DC (sense CUACACUGCUAAACUGAUUTT; antisense AAUCAGUUUAGCAGUGUAGUU; inverted abasic end caps, TT overhangs, modified nucleotides, further chemistry not given here)	10266
29988-DC (sense AUUUGAACCUUUAAUUCAGTT; antisense CUGAAUUAAAGGUUCAAAUUU; inverted abasic end caps, TT overhangs, modified nucleotides, further chemistry not given here)	550

From here, focus on the item given below.
Task item: For the substance 29964-DC (sense GAUUUGCAGGUGAUGUUAATT; antisense UUAACAUCACCUGCAAAUCUU; inverted abasic end caps, TT overhangs, modified nucleotides, further chemistry not given here) , give its measured Maximum HMOX1 upregulation value.
Reply: 4800

Just for reference, patent US20120016010A1 is where these values come from.
